Test system: CCRIS mutagenicity, Ames/micronucleus/aberration tests
protocol: CCRIS mutagenicity studies
conditionSummary: Test System: AMES SALMONELLA TYPHIMURIUM; Strain/Indicator: TA100; Metabolic Activation: HAMSTER LIVER S-9, AROCLOR 1254 (10%); Method: PREINCUBATION
Calls of active or inactive are those of the source. The rule behind the calls is not given here.
Bench note: report the call from true (1) for active, false (0) for inactive

In: Recorded test outcome, item C=CC#N
Out: true (1)

In: // return assay outcome for C=CCc1ccc2c(c1)OCO2
Out: false (0)

In: Would you mind telling me which call this test gave Cl/C=C/Cl ?
Out: false (0)

In: For O=C(c1ccccc1)C(O)c1ccccc1 (centres undefined) , what call appears in the results of this test?
Out: false (0)

----------
Test system: CCRIS mutagenicity, Ames/micronucleus/aberration tests
protocol: CCRIS mutagenicity studies
conditionSummary: Test System: AMES SALMONELLA TYPHIMURIUM; Strain/Indicator: TA98; Metabolic Activation: RAT, LIVER, MICROSOMES, AROCLOR 1254; Method: STANDARD PLATE
Activity calls are given as the source filed them. How the calls were made is not given here.
Please state which outcome applies, choosing from YES for active, NO for inactive

In: Which outcome was entered for the molecule C1=Cc2c3ccc4ccccc4c3cc3cccc1c23 in this test?
Out: YES

In: Would you mind telling me which call this test gave Cc1cc2c3ccccc3ccc2c2ccccc12 ?
Out: NO

In: Called result for Nc1ccc2c(ccc3c4ccccc4ccc23)c1
Out: YES

In: Would you mind telling me which call this test gave Nc1ccc2nc3ccccn3c2n1 ?
Out: NO

----------
Tested on: CCRIS mutagenicity, Ames/micronucleus/aberration tests
protocol: CCRIS mutagenicity studies
conditionSummary: Test System: AMES SALMONELLA TYPHIMURIUM; Strain/Indicator: TA100; Metabolic Activation: HAMSTER, LIVER, S-9, AROCLOR 1254 (10%); Method: PREINCUBATION
Calls of active or inactive are those of the source. No rule for the calls is given here.
Hi there, use one of these labels in your reply, thanks! y for active, n for inactive

In: Name the outcome recorded for O=Cc1ccccc1Cl in the assay.
Out: n

In: What did this assay record as the result for C=C(C)C1CC=C(C)C(O)C1 (centres undefined) ?
Out: n

In: Hi team, can someone confirm the assay call for CCN(CC)CCO ?
Out: n

In: Hi, sorry to bother you, what did the test record for CCCCCCC(C)COC(=O)c1ccccc1C(=O)OCC(C)CCCCCC (centres undefined) ?
Out: n

In: Given c1ccc(COCc2ccccc2)cc1 , state the outcome it received in this test.
Out: n

In: Which outcome did this test record for the compound Nc1c(N=Nc2ccc(-c3ccc(NN=C4C=CC(=O)C=C4)cc3)cc2)c(S(=O)(=O)O)cc2c1C(=O)/C(=N/Nc1ccccc1)C(S(=O)(=O)O)=C2 ?
Out: n

In: Test call, this compound: ClCC1CO1 (centres undefined)
Out: y

In: // return assay outcome for CC(=O)Nc1ccc(N=Nc2cc(C)ccc2O)cc1
Out: y

In: Please indicate how the test categorized O=c1[nH]cc(F)c(=O)[nH]1 .
Out: n

In: Each compound tested received a call. Report the one for CC(O)CN (centres undefined) .
Out: n

In: Each compound tested received a call. Report the one for CCCCCC(N)=O .
Out: n

In: // return assay outcome for CC(C)(C)c1cc(O)ccc1O
Out: n

In: In this assay, the call recorded for O=[N+]([O-])c1ccccc1CCl was what?
Out: y

In: How did this test come out for Nc1ccccc1C(=O)OC1CCCCC1 ?
Out: n
